Provenance of the data: ChEMBL document CHEMBL1933020

test: Oral bioavailability in Wistar-Han rat at 5 mg/kg; assay type: ADME, organism-based; details: Wistar-Han, in vivo
OUTCOME_MEASURE: bioavailability (%)

> print(dat)
                                   compound  reported.value
1  O=C(O)CCNC(=O)c1ccc(C(CCC(F)(F)F)Nc2cnn(-c3ccc(C(F)(F)F)cc3)c2)cc1 (single isomer, unassigned; (+))             0.5
2  CCCC(Nc1cnn(-c2ccc(C(F)(F)F)cc2)c1)c1ccc(C(=O)NCCC(=O)O)cc1 (single isomer, unassigned; (+))               4
3  CCCC(Oc1cnn(-c2ccc(C(F)(F)F)cc2)c1)c1ccc(C(=O)NCCC(=O)O)cc1 (single isomer, unassigned; (-))              11
